The measured values listed here are drawn from patent US20260250337A1.

Tested on: human erythrocytes
protocol-notes: Hemolytic activity assay
Format: cell-based
experimental-conditions: human erythrocytes, 1 h, room temperature; concentration with approximately 0% of hemolytic activity
No end group written: not given here.
Listing of recorded MHC by entry.

substance	MHC
GLGALLNVIKSGL-NH2 [AV]	>100 µmol/L
FLGTLWGGAKGVF-NH2 [VP]	>100 µmol/L

Inquiry: What does the record list as MHC for FLGSLWRKAGTVF-NH2 [VD] ?
Reply text: >100 µmol/L
